assay-method-text: Study 1: single escalating oral dose pharmacokinetics, fed and fasted
Type: in vivo, human
test-context: human, plasma, po, 800 mg, 800 mg single oral dose, fed; geometric mean
parameter: AUC(0-inf) (ng·h/mL)
Answer with a number only, understood to be in ng·h/mL.

Per the records, this compound ( CCC(CC)c1cc(C)nc2c(-c3sc(N4CCOCC4)nc3Cl)c(C)nn12 ) has AUC(0-inf) equal to 4850

----------
assay-method-text: Study 2 Part A: multiple-dose (14 days) pharmacokinetics
Format: in vivo, human
test-context: human, plasma, oral, 150 mg, Day 1; geometric mean; read-out: AUC0-24h
parameter: AUC(0-t) (ng·h/mL)
Numeric only. Scale: ng·h/mL

// field: AUC(0-t); key: CCC(CC)c1cc(C)nc2c(-c3sc(N4CCOCC4)nc3Cl)c(C)nn12 [Compound 1] ; value = 590
